The following compounds are listed with their measured IC50 values.
- system.under.test: HLA-DR DRB1*0901 (DR9) (Homo sapiens, UniProt P01903+P01911, A100R/A103E/D57H/D86V/F55Y/F60I/F76Y/I96F/K127E/L162R/M171V/P40D/Q125H/Q99R/R33Q/R42F/S133A/S66N/T210M/V115G/W38K/Y107V/Y59G/Y89S)
- measurement.notes: biochemical
- Type: binding
- test.context: DRB1 *0901

smiles.entry	IC50
CSCC[C@H](NC(=O)[C@@H](NC(=O)[C@H](CCCCN)NC(=O)[C@@H](NC(=O)[C@H](C)NC(=O)[C@H](CC(=O)O)NC(=O)[C@@H](N)[C@@H](C)O)C(C)C)C(C)C)C(=O)N[C@@H](CC(=O)O)C(=O)N[C@@H](CC(C)C)C(=O)N1CCC[C@H]1C(=O)N[C@H](C(=O)N[C@@H](CCC(N)=O)C(=O)N[C@@H](CCC(=O)O)C(=O)N1CCC[C@H]1C(=O)N[C@@H](C)C(=O)O)[C@@H](C)O	> 107 µM

Briefly, IC50 measured for CC[C@H](C)[C@H](NC(=O)[C@@H](NC(=O)[C@@H](N)CO)C(C)C)C(=O)N[C@@H](CC(C)C)C(=O)N[C@@H](CC(C)C)C(=O)NCC(=O)N[C@@H](CCCNC(=N)N)C(=O)N[C@@H](Cc1c[nH]cn1)C(=O)N[C@@H](CO)C(=O)N[C@@H](CC(C)C)C(=O)N[C@@H](Cc1ccccc1)C(=O)N[C@@H](Cc1c[nH]cn1)C(=O)N1CCC[C@H]1C(=O)N[C@@H](CCC(=O)O)C(=O)N[C@@H](CC(=O)O)C(=O)O : 5.22 µM

Briefly, IC50 measured for CC[C@H](C)[C@H](NC(=O)[C@@H]1CCCN1C(=O)[C@H](CCC(N)=O)NC(=O)[C@@H](N)Cc1c[nH]c2ccccc12)C(=O)N1CCC[C@H]1C(=O)N[C@H](C(=O)N[C@@H](Cc1c[nH]cn1)C(=O)N[C@H](C(=O)N[C@H](C(=O)N1CCC[C@H]1C(=O)N[C@@H](CC(C)C)C(=O)N[C@@H](CO)C(=O)N[C@@H](CCC(=O)O)C(=O)N[C@@H](CC(=O)O)C(=O)N[C@@H](CCC(N)=O)C(=O)O)C(C)C)[C@@H](C)O)C(C)C : 17.5 µM

Briefly, IC50 measured for CSCC[C@H](NC(=O)[C@H](CCC(=O)O)NC(=O)[C@H](CCC(N)=O)NC(=O)[C@@H]1CCCN1)C(=O)N[C@@H](CCCCN)C(=O)N[C@H](C(=O)N[C@@H](Cc1ccc(O)cc1)C(=O)N[C@@H](CO)C(=O)N[C@H](C(=O)N[C@@H](CO)C(=O)N[C@@H](Cc1ccccc1)C(=O)N[C@@H](CC(=O)O)C(=O)N[C@@H](CO)C(=O)N[C@@H](CC(C)C)C(=O)N[C@@H](Cc1ccccc1)C(=O)O)C(C)C)[C@@H](C)O : 1.98 µM

Briefly, IC50 measured for CC[C@H](C)[C@H](NC(=O)[C@H](Cc1ccc(O)cc1)NC(=O)[C@@H]1CCCN1C(=O)[C@H](CC(=O)O)NC(=O)[C@H](CCC(=O)O)NC(=O)[C@H](CC(C)C)NC(=O)[C@@H](NC(=O)[C@H](C)NC(=O)[C@@H](N)CCC(=O)O)C(C)C)C(=O)N[C@@H](CC(C)C)C(=O)N[C@@H](CC(C)C)C(=O)N[C@H](C(=O)N[C@@H](CO)C(=O)N[C@@H](CO)C(=O)N[C@@H](CCCCN)C(=O)O)C(C)C : 15 µM
